Biological target: RIPK1 (Homo sapiens (Human))
Experiment: RIPK1-ADP-Glo Enzymatic Assay
Details: recombinant GST-RIPK1 kinase domain (residues 1-327), 25 nM, ten-point titration, 30 minutes pre-incubation
pEC50: −log10 of the molar value.
OBSERVED_PROPERTY: pEC50

In the examples that follow, each entry is paired with its recorded pEC50.
COMPOUND: O=C1N2[C@H](c3cc(F)cc(F)c3)CCN2CC12CCN(c1ccnc(C(F)F)n1)CC2 [Example 1.8]
pEC50: 7.80
//
COMPOUND: Cc1csc2ncnc(N3CCC4(CC3)CN3CC[C@@H](c5cc(F)cc(F)c5)N3C4=O)c12 [Example 1.73]
pEC50: 8.40
//
COMPOUND: CC(C)Oc1cc(N2CCC3(CC2)CN2CC[C@@H](c4cc(F)cc(F)c4)N2C3=O)ncc1C#N [Example 1.59]
pEC50: 7.74
//
COMPOUND: O=C(c1ccc(F)c(F)c1)N1CCC2(CC1)CN1CC[C@@H](c3cc(F)cc(F)c3)N1C2=O [Example 4.24]
pEC50: 7.49
//
COMPOUND: O=C1N2[C@H](c3cc(F)cc(F)c3)CCN2CC12CCN(c1ncc(F)cc1C(F)F)CC2 [Example 2.9]
pEC50: 6.10

1 = O=C1N2[C@H](c3cc(F)cc(F)c3)CCN2CC12CCN(c1cc(O)ncn1)CC2 [Example 1.2]
2 = Cc1ccc2c(N3CCC4(CC3)CN3CC[C@@H](c5cc(F)cc(F)c5)N3C4=O)ccnc2c1 [Example 2.8]
3 = CCc1cnc(N2CCC3(CC2)CN2CC[C@@H](c4cc(F)cc(F)c4)N2C3=O)nc1 [Example 1.28]
4 = COc1ccc(C(=O)N2CCC3(CC2)CN2CC[C@@H](c4cc(F)cc(F)c4)N2C3=O)cc1F [Example 4.16]
5 = O=C1N2[C@H](c3cc(F)cc(F)c3)CCN2CC12CCN(c1ncccn1)CC2 [Example 1.55]
Query block: Please rank these compounds by pEC50 in descending order. Show the ranking through the labels, in the order asked for.
Result block: 2, 4, 1, 3, 5
(2: 7.62, 4: 7.08, 1: 6.82, 3: 6.39, 5: 6.09)

P = O=C1N2[C@H](c3cc(F)cc(F)c3)CCN2CC12CCN(c1cc(-n3cccn3)ncn1)CC2 [Example 1.17]
Q = N#Cc1c(F)c(F)nc(N2CCC3(CC2)CN2CC[C@@H](c4cc(F)cc(F)c4)N2C3=O)c1F [Example 1.51]
Query block: Returns: the argument ( P or Q ) having the larger pEC50. Write down the label attached to your selection.
Result block: P
(P: 7.70, Q: 6.72)

P = O=C(c1cccnc1)N1CCC2(CC1)CN1CC[C@@H](c3cc(F)cc(F)c3)N1C2=O [Example 4.4]
Q = Cc1ccn(-c2cccc(N3CCC4(CC3)CN3CC[C@@H](c5cc(F)cc(F)c5)N3C4=O)n2)n1 [Example 2.13]
Query block: Hi there, can you help? I need to know whether P or Q has lower measured pEC50. Pick one; state its label.
Result block: P
(P: 6.68, Q: 7.77)

----------
Molecular target: RIPK1 (Homo sapiens (Human))
Assay: RIPK1-ADP-Glo Enzymatic Assay
Conditions: recombinant GST-RIPK1 kinase domain (residues 1-327), 25 nM, ten-point titration, 30 minutes pre-incubation
pEC50: −log10 of the molar value.
OBSERVED_PROPERTY: pEC50

Example entries and their recorded answers appear below.
COMPOUND: O=C1N2[C@H](c3cc(F)cc(F)c3)CCN2CC12CCN(c1nc(Cl)nc3c1CCC3)CC2 [Example 1.65]
EXPERIMENTAL_TARGET: RIPK1 (Homo sapiens (Human))
RECORDED_NUMBER: 6.84
--
COMPOUND: CSc1cnc(N2CCC3(CC2)CN2CC[C@@H](c4cc(F)cc(F)c4)N2C3=O)nc1 [Example 1.22]
EXPERIMENTAL_TARGET: RIPK1 (Homo sapiens (Human))
RECORDED_NUMBER: 7.05

A = CN(C)c1nc(Cl)cc(N2CCC3(CC2)CN2CC[C@@H](c4cc(F)cc(F)c4)N2C3=O)n1 [Example 1.30]
B = N#Cc1cccc(N2CCC3(CC2)CN2CC[C@@H](c4cc(F)cc(F)c4)N2C3=O)n1 [Example 1.58]
Query block: Hey, which is lower on measured pEC50, A or B ? Your answer should be the label of the entry you select.
Result block: A

----------
Biological target: RIPK1 (Homo sapiens (Human), UniProt Q13546)
Sequence (Q13546 1-327): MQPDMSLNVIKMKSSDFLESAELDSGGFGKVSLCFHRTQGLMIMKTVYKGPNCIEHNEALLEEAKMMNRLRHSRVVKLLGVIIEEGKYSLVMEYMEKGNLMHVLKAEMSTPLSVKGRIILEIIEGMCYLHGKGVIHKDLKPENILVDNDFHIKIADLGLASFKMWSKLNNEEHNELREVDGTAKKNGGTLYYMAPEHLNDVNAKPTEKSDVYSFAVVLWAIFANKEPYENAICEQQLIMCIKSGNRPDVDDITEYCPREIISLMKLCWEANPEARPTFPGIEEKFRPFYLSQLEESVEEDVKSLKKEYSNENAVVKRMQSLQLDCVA
Experiment: RIPK1-ADP-Glo Enzymatic Assay
Conditions: recombinant GST-RIPK1 kinase domain (residues 1-327), 25 nM, ten-point titration, 30 minutes pre-incubation
OBSERVED_PROPERTY: EC50 (nM)

Solved cases (5 shown):
MOL_SMILES: Cc1ncc(Cl)nc1N1CCC2(CC1)CN1CC[C@@H](c3cc(F)cc(F)c3)N1C2=O
EC50 (nM): 876
--
MOL_SMILES: Cc1c(F)cccc1C(=O)N1CCC2(CC1)CN1CC[C@@H](c3cc(F)cc(F)c3)N1C2=O
EC50 (nM): 158
--
MOL_SMILES: O=C(c1cccc(F)c1F)N1CCC2(CC1)CN1CC[C@@H](c3cc(F)cc(F)c3)N1C2=O
EC50 (nM): 23
--
MOL_SMILES: O=C1N2[C@H](c3cc(F)cc(F)c3)CCN2CC12CCN(c1ccc(Cl)nn1)CC2
EC50 (nM): 457
--
MOL_SMILES: O=C1N2[C@H](c3cc(F)cc(F)c3)CCN2CC12CCN(c1ncc(OC(F)F)cn1)CC2
EC50 (nM): 38

I = CN(C)c1cc(Cl)nc(N2CCC3(CC2)CN2CC[C@@H](c4cc(F)cc(F)c4)N2C3=O)n1
II = Cc1cnn(-c2cnc(N3CCC4(CC3)CN3CC[C@@H](c5cc(F)cc(F)c5)N3C4=O)cn2)c1
Query block: Quick check, higher EC50 between I and II ? State your choice using its label.
Result block: I
(I: 904 nM, II: 80 nM)

----------
Target: RIPK1 (Homo sapiens (Human))
Test: RIPK1-ADP-Glo Enzymatic Assay
Conditions: recombinant GST-RIPK1 kinase domain (residues 1-327), 25 nM, ten-point titration, 30 minutes pre-incubation
OBSERVED_PROPERTY: EC50 (nM)

# count of solved cases: 5
COMPOUND: COc1cc(N2CCC3(CC2)CN2CC[C@@H](c4cc(F)cc(F)c4)N2C3=O)ccn1
EXPERIMENTAL_TARGET: RIPK1 (Homo sapiens (Human))
EC50, nM: 24
//
COMPOUND: O=C1N2[C@H](c3cc(F)cc(F)c3)CCN2CC12CCN(c1ccnc3ccnn13)CC2
EXPERIMENTAL_TARGET: RIPK1 (Homo sapiens (Human))
EC50, nM: 33
//
COMPOUND: COC(=O)N1CCC2(CC1)CN1CC[C@@H](c3cc(F)cc(F)c3)N1C2=O
EXPERIMENTAL_TARGET: RIPK1 (Homo sapiens (Human))
EC50, nM: 139
//
COMPOUND: O=C1N2[C@H](c3cc(F)cc(F)c3)CCN2CC12CCN(c1ncc(F)cn1)CC2
EXPERIMENTAL_TARGET: RIPK1 (Homo sapiens (Human))
EC50, nM: 84
//
COMPOUND: Cn1cnc(N2CCC3(CC2)CN2CC[C@@H](c4cc(F)cc(F)c4)N2C3=O)cc1=O
EXPERIMENTAL_TARGET: RIPK1 (Homo sapiens (Human))
EC50, nM: 750

P = O=C1N2[C@H](c3cc(F)cc(F)c3)CCN2CC12CCN(c1cncc(F)c1)CC2
Q = N#Cc1cnc(N2CCC3(CC2)CN2CC[C@@H](c4cc(F)cc(F)c4)N2C3=O)nc1
Query block: Lowest EC50? choose P or Q API: response body contains the label of the selected item.
Result block: Q

----------
Molecular target: RIPK1 (Homo sapiens (Human))
Experiment: RIPK1-ADP-Glo Enzymatic Assay
Conditions: recombinant GST-RIPK1 kinase domain (residues 1-327), 25 nM, ten-point titration, 30 minutes pre-incubation
OBSERVED_PROPERTY: EC50 (nM)

COMPOUND: COc1nccc(N2CCC3(CC2)CN2CC[C@@H](c4cc(F)cc(F)c4)N2C3=O)n1
UNITS_SYMBOL: nM
RECORDED_NUMBER: 30
//
COMPOUND: N#Cc1cnc(N2CCC3(CC2)CN2CC[C@@H](c4cc(F)cc(F)c4)N2C3=O)cn1
UNITS_SYMBOL: nM
RECORDED_NUMBER: 27

a = O=C1N2[C@H](c3cc(F)cc(F)c3)CCN2CC12CCN(c1cnccn1)CC2
b = O=C(c1cnccn1)N1CCC2(CC1)CN1CC[C@@H](c3cc(F)cc(F)c3)N1C2=O
c = Cc1cc(F)c(C(=O)N2CCC3(CC2)CN2CC[C@@H](c4cc(F)cc(F)c4)N2C3=O)cc1F
Query block: # rank by EC50, ascending (min first) Lab note: record answer as labels in requested order.
Result block: c, b, a
(c: 23 nM, b: 50 nM, a: 308 nM)

P = N#Cc1cc(N2CCC3(CC2)CN2CC[C@@H](c4cc(F)cc(F)c4)N2C3=O)ccn1
Q = O=C1N2[C@H](c3cc(F)cc(F)c3)CCN2CC12CCN(c1ncc3c(n1)CCCC3)CC2
Query block: Which numeric EC50 is bigger, that of P or that of Q ? Please respond with the label that marks your chosen entry.
Result block: Q

P = Cc1cn(-c2cc(N3CCC4(CC3)CN3CC[C@@H](c5cc(F)cc(F)c5)N3C4=O)ncn2)cn1
Q = Cc1c(Cl)ncnc1N1CCC2(CC1)CN1CC[C@@H](c3cc(F)cc(F)c3)N1C2=O
R = O=C1N2[C@H](c3cc(F)cc(F)c3)CCN2CC12CCN(c1nccc(C(F)(F)F)n1)CC2
Query block: Arrange items by their EC50 values in increasing order. Answer by listing the labels in the requested order.
Result block: Q, P, R
(Q: 20 nM, P: 37 nM, R: 91 nM)
